# ASSAY PROTOCOL: Stability of DA-7010 in dog plasma under various storage conditions
# Assay type: in vitro ADME
# CONDITIONS: long term (‒20 °C over 1 month), nominal 400 ng/mL, n = 3, mean ± SD
QUANTITY KIND: recovery at 1 month, 400 ng/mL
Answer with the figure and its unit, nothing else.

Query string: Give the measured recovery at 1 month, 400 ng/mL of C[C@@H]1COB2O[C@H](CN)c3cccc(c32)O1 .
Result string: 97.3%

---

# ASSAY PROTOCOL: Stability of DA-7010 in dog plasma under various storage conditions
# Type: in vitro ADME
# CONDITIONS: short term (room temperature 8 h), nominal 400 ng/mL, n = 3, mean ± SD
QUANTITY KIND: recovery at 8 h, 400 ng/mL (%)
Give just the number in %; leave the unit off.

Query string: Give the measured recovery at 8 h, 400 ng/mL of C[C@@H]1COB2O[C@H](CN)c3cccc(c32)O1 .
Result string: 92.9

Where do these numbers come from? They come from paper PMC7922803.
